Listed below: mortality at 0.005 µg/mL values for each entry.
# Test system: Culex pipiens pallens
# TEST: Larvicidal activity against fourth-instar larval stage of Culex pipiens pallens (mosquito) assessed as mortality at 0.005 mg/l at 25 +/-1 degC after 8 days
# Assay type: functional
# RUN CONDITIONS: 192 h

May I ask what mortality at 0.005 µg/mL has been recorded for CCC(C)O/N=C/c1ccc(NC(=O)NC(=O)c2c(F)cccc2F)cc1 (stereo not drawn) ?
20%

May I ask what mortality at 0.005 µg/mL has been recorded for CC1CCC(C(C)C)C(O/N=C/c2ccc(NC(=O)NC(=O)c3c(F)cccc3F)cc2)C1 (stereo not drawn) ?
100%

May I ask what mortality at 0.005 µg/mL has been recorded for CCCC(C)O/N=C/c1ccc(NC(=O)NC(=O)c2c(F)cccc2F)cc1 (stereo not drawn) ?
20%

May I ask what mortality at 0.005 µg/mL has been recorded for `CC(C)(C)O/N=C/c1ccc(NC(=O)NC(=O)c2c(F)cccc2F)cc1` ?
100%

May I ask what mortality at 0.005 µg/mL has been recorded for `CC(C)O/N=C/c1ccc(NC(=O)NC(=O)c2c(F)cccc2F)cc1` ?
75%

May I ask what mortality at 0.005 µg/mL has been recorded for `O=C(NC(=O)c1c(F)cccc1F)Nc1ccc(/C=N/OCC(F)(F)F)cc1` ?
100%

May I ask what mortality at 0.005 µg/mL has been recorded for `O=C(NC(=O)c1c(F)cccc1F)Nc1ccc(/C=N/OC(C(F)(F)F)C(F)(F)F)cc1` ?
100%

Next up:
May I ask what mortality at 0.005 µg/mL has been recorded for `O=C(NC(=O)c1c(F)cccc1F)Nc1ccc(/C=N/OCC2CC2)cc1` ?
100%
